Values were extracted from patent US20210130436A1.

Fold change to WT CD80 overview
- SYSTEM NAME: T1, human PD-L1 (huPD-L1), full-length, stably expressed on CHO cells (human, UniProt Q9NZQ7 19-290)
- T1 construct: whole, on cells
- T1 sequence (Q9NZQ7 19-290): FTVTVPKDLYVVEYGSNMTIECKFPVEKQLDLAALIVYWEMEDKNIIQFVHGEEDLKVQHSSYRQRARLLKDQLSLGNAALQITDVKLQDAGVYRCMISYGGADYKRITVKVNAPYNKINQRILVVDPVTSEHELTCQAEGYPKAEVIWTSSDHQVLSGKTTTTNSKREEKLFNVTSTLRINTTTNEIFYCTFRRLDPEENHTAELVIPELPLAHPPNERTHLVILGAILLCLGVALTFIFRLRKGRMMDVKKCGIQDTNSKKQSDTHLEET
- EXPERIMENT: flow cytometry, CHO cells expressing huPD-L1; MFI against WT CD80 of the table
READOUT NAME: Fold change to WT CD80

- variant CD80 IgV-Fc E35D/M47L/V68M/E95V/L97Q (Fc fusion, not shown: small tags and cut ends; a dimerising Fc or GST) VIHVTKEVKEVATLSCGHNVSVEELAQTRIYWQKDKKMVLTMMSGDLNIWPEYKNRTIFDITNNLSIMILALRPSDEGTYECVVLKYEKDAFKRVHQAEVTLSVKAD: 361 fold
- variant CD80 IgV-Fc E35D/M47V/N48K/V68M/A71G/L85M (Fc fusion, not shown: small tags and cut ends; a dimerising Fc or GST) VIHVTKEVKEVATLSCGHNVSVEELAQTRIYWQKDKKMVLTMMSGDVKIWPEYKNRTIFDITNNLSIMILGLRPSDEGTYECVVMKYEKDAFKREHLAEVTLSVKAD: 442 fold
- variant CD80 IgV-Fc E35D/T41S/D46E/M47I/V68M/K93R/E95V (Fc fusion, not shown: small tags and cut ends; a dimerising Fc or GST) VIHVTKEVKEVATLSCGHNVSVEELAQTRIYWQKDKKMVLSMMSGEINIWPEYKNRTIFDITNNLSIMILALRPSDEGTYECVVLKYEKDAFRRVHLAEVTLSVKAD: 287 fold
- variant CD80 IgV-Fc E35D/D46E/M47L/V68M/T79M/L85M/L97Q (Fc fusion, not shown: small tags and cut ends; a dimerising Fc or GST) VIHVTKEVKEVATLSCGHNVSVEELAQTRIYWQKDKKMVLTMMSGELNIWPEYKNRTIFDITNNLSIMILALRPSDEGMYECVVMKYEKDAFKREHQAEVTLSVKAD: 89.7 fold
